System: P. aeruginosa H1027 (MDR)
Test: microbe, parasite or virus in culture
Details: Pseudomonas aeruginosa
Protocol: The MICs of test agents were measured using a modified broth micro-dilution method in Difco Mueller Hinton medium, on a panel of bacterial pathogens that were both susceptible and resistant to common antibiotics (S1 File). Briefly, serial dilutions were performed in 0.01% acetic acid containing 0.2% bovine serum albumin at 10-fold the desired final concentration. […]
Exercise: state measured MIC for each of the compounds provided.
Answers are plain numbers, in µg/mL.

Compound	MIC [µg/mL]
NC[C@H]1O[C@H](O[C@H]2[C@H](O)[C@@H](O[C@H]3O[C@H](CO)[C@@H](O)[C@H](N)[C@H]3O)[C@H](N)C[C@@H]2N)[C@H](N)C[C@@H]1O [Tobramycin, reference compound]	32

Quick one: give me MIC for each item below, same order please.
1. CC(C)(O/N=C(\C(=O)N[C@@H]1C(=O)N2C(C(=O)[O-])=C(C[n+]3ccccc3)CS[C@H]12)c1csc(N)n1)C(=O)O [Ceftazidime, reference compound]
2. C[C@@H](O)[C@H]1C(=O)N2C(C(=O)O)=C(SCCN=CN)C[C@H]12 [Imipenem, reference compound]
3. O=C(O)c1cn(C2CC2)c2cc(N3CCNCC3)c(F)cc2c1=O [Ciprofloxacin, reference compound]

128
8
1

* * *

Answer each item with its documented MIC.
System: E. coli 64771 (ESBL)
Experiment: microbe, parasite or virus in culture
Settings: Escherichia coli
Give bare numbers, in µg/mL.

Molecule	Target Of Assay	MIC / µg/mL
NC[C@H]1O[C@H](O[C@H]2[C@H](O)[C@@H](O[C@H]3O[C@H](CO)[C@@H](O)[C@H](N)[C@H]3O)[C@H](N)C[C@@H]2N)[C@H](N)C[C@@H]1O [Tobramycin, reference compound]	E. coli 64771 (ESBL)	128

Attention now turns to another entry.
// C[C@@H](O)[C@H]1C(=O)N2C(C(=O)O)=C(SCCN=CN)C[C@H]12 [Imipenem, reference compound] : MIC value = 0.1

* * *

Test system: E. faecium T62764 (VRE)
Test: microbe, parasite or virus in culture
Settings: T62764 (VRE)
Square brackets hold non-standard residues; d marks the D form. Peptide text beside a SMILES is read from it. Nspe = C[C@H](NCC(=O)O)c1ccccc1; Nlys = NCCCCNCC(=O)O
Measurement Label: MIC (µg/mL)
Give bare numbers, in µg/mL.

Compound	Target Of Assay	MIC (µg/mL)
C[C@H](NCC(=O)N(CCCCN)CC(=O)N(CC(=O)N(CCCCN)CC(=O)N(CCCCN)CC(=O)N(CC(=O)N(CC(=O)N(CCCCN)CC(=O)N(CC(=O)N(CCCCN)CC(=O)N(CCCCN)CC(=O)N(CC(N)=O)[C@@H](C)c1ccccc1)[C@@H](C)c1ccccc1)[C@@H](C)c1ccccc1)[C@@H](C)c1ccccc1)[C@@H](C)c1ccccc1)c1ccccc1 [1B-NLys4,10, H-(Nspe-NLys-Nspe-NLys-NLys-Nspe)2-NH2] (H-[Nspe][Nlys][Nspe][Nlys][Nlys][Nspe][Nspe][Nlys][Nspe][Nlys][Nlys][Nspe]-NH2)	E. faecium T62764 (VRE)	16

// moving on: another record for MIC
Briefly, MIC measured for C[C@@H](c1ccccc1)N(CC(N)=O)C(=O)CN(C(=O)CN(CCCCN)C(=O)CN(Cc1ccccc1)C(=O)CN(Cc1ccccc1)C(=O)CN(CCCCN)C(=O)CN(C(=O)CN(C(=O)CN(CCCCN)C(=O)CN(Cc1ccccc1)C(=O)CN(Cc1ccccc1)C(=O)CNCCCCN)[C@@H](C)c1ccccc1)[C@@H](C)c1ccccc1)[C@@H](C)c1ccccc1 [1-Npm2,3,8,9, H-(NLys-Npm-Npm-NLys-Nspe-Nspe)2-NH2] : 1

* * *

Field: MIC. Provide a value for each of the compounds that follow.
Tested on: P. aeruginosa 213 (MDR)
Test: microbe, parasite or virus in culture
Conditions: 213 (MDR)
Method: The MICs of test agents were measured using a modified broth micro-dilution method in Difco Mueller Hinton medium, on a panel of bacterial pathogens that were both susceptible and resistant to common antibiotics (S1 File). Briefly, serial dilutions were performed in 0.01% acetic acid containing 0.2% bovine serum albumin at 10-fold the desired final concentration. […]
Numbered stars: 1 amine (or outer) side, 2 acyl side, 3 side chain; on linkers, the order of the positions; unused ones are H or OH. Square brackets hold non-standard residues; d marks the D form. Peptide text beside a SMILES is read from it. X1 = CC(C)[C@H](C)N(CC(=O)[*:2])[*:1]; Nspe = C[C@H](NCC(=O)O)c1ccccc1; Nlys = NCCCCNCC(=O)O
Numbers only, in µg/mL.

Compound	Target Of Assay	MIC, µg/mL
C[C@H](NCC(=O)N(CCCCN)CC(=O)N(CC(=O)N(CCCCN)CC(=O)N(CCCCN)CC(=O)N(CC(=O)N(CC(=O)N(CCCCN)CC(=O)N(CC(=O)N(CCCCN)CC(=O)N(CCCCN)CC(=O)N(CC(N)=O)[C@@H](C)c1ccccc1)[C@@H](C)c1ccccc1)[C@@H](C)c1ccccc1)[C@@H](C)c1ccccc1)[C@@H](C)c1ccccc1)c1ccccc1 [1B-NLys4,10, H-(Nspe-NLys-Nspe-NLys-NLys-Nspe)2-NH2] (H-[Nspe][Nlys][Nspe][Nlys][Nlys][Nspe][Nspe][Nlys][Nspe][Nlys][Nlys][Nspe]-NH2)	P. aeruginosa 213 (MDR)	16
CC(C)[C@H](C)N(CC(=O)N(CC(=O)N(CCCCN)CC(=O)N(CC(=O)N(CC(=O)N(CCCCN)CC(=O)N(CC(=O)N(CC(=O)N(CCCCN)CC(=O)N(CC(=O)N(CC(N)=O)[C@@H](C)c1ccccc1)[C@@H](C)C(C)C)[C@@H](C)c1ccccc1)[C@@H](C)C(C)C)[C@@H](C)c1ccccc1)[C@@H](C)C(C)C)[C@@H](C)c1ccccc1)C(=O)CNCCCCN [1-Nsdp2.5.8.11, H-(NLys-Nsdp-Nspe)4-NH2] (H-[Nlys][X1][Nspe][Nlys][X1][Nspe][Nlys][X1][Nspe][Nlys][X1][Nspe]-NH2)	P. aeruginosa 213 (MDR)	16
C[C@@H](c1ccccc1)N(CC(N)=O)C(=O)CN(CCCCN)C(=O)CN(CCCCN)C(=O)CN(C(=O)CN(C(=O)CN(CCCCN)C(=O)CN(C(=O)CN(CCCCN)C(=O)CN(CCCCN)C(=O)CN(C(=O)CN(C(=O)CNCCCCN)[C@@H](C)c1ccccc1)[C@@H](C)c1ccccc1)[C@@H](C)c1ccccc1)[C@@H](C)c1ccccc1)[C@@H](C)c1ccccc1 [1-NLys5,11, H-(NLys-Nspe-Nspe-NLys-NLys-Nspe)2-NH2] (H-[Nlys][Nspe][Nspe][Nlys][Nlys][Nspe][Nlys][Nspe][Nspe][Nlys][Nlys][Nspe]-NH2)	P. aeruginosa 213 (MDR)	8

Look at each compound and report its MIC.
1. C[C@H](NCC(=O)N(CC(=O)N(CCCCN)CC(=O)N(CC(=O)N(CCCCN)CC(=O)N(CC(=O)N(CCCCN)CC(=O)N(CC(=O)N(CC(=O)N(CC(=O)N(CC(=O)N(CCCCN)CC(N)=O)[C@@H](C)c1ccccc1)[C@@H](C)c1ccccc1)[C@@H](C)c1ccccc1)[C@@H](C)c1ccccc1)[C@@H](C)c1ccccc1)[C@@H](C)c1ccccc1)[C@@H](C)c1ccccc1)c1ccccc1 [Peptoid 1scr, H-(Nspe)2-(NLys-Nspe)3-(Nspe)3-NLys-NH2] (H-[Nspe][Nspe][Nlys][Nspe][Nlys][Nspe][Nlys][Nspe][Nspe][Nspe][Nspe][Nlys]-NH2)
2. C[C@@H](c1ccccc1)N(CC(N)=O)C(=O)CN(Cc1ccccc1)C(=O)CN(CCCCN)C(=O)CN(Cc1ccccc1)C(=O)CN(Cc1ccccc1)C(=O)CN(CCCCN)C(=O)CN(Cc1ccccc1)C(=O)CN(Cc1ccccc1)C(=O)CN(CCCCN)C(=O)CN(Cc1ccccc1)C(=O)CN(Cc1ccccc1)C(=O)CNCCCCN [Peptoid 1ach-Nspe12, H-(NLys-Npm-Npm)3-(NLys-Npm-Nspe)-NH2]
3. C[C@@H](c1ccccc1)N(CC(N)=O)C(=O)CN(C(=O)CN(CCCCN)C(=O)[C@@H]1CCCN1C(=O)CN(C(=O)CN(CCCCN)C(=O)CN(C(=O)CN(C(=O)CN(CCCCN)C(=O)CN(C(=O)CN(C(=O)CNCCCCN)[C@@H](C)c1ccccc1)[C@@H](C)c1ccccc1)[C@@H](C)c1ccccc1)[C@@H](C)c1ccccc1)[C@@H](C)c1ccccc1)[C@@H](C)c1ccccc1 [Peptoid 1-Pro9] (H-[Nlys][Nspe][Nspe][Nlys][Nspe][Nspe][Nlys][Nspe]P[Nlys][Nspe][Nspe]-NH2)
4. CC(C)[C@H](C)N(CC(N)=O)C(=O)CN(C(=O)CN(CCCCN)C(=O)CN(C(=O)CN(C(=O)CN(CCCCN)C(=O)CN(C(=O)CN(C(=O)CN(CCCCN)C(=O)CN(C(=O)CN(C(=O)CNCCCCN)[C@@H](C)C(C)C)[C@@H](C)C(C)C)[C@@H](C)C(C)C)[C@@H](C)C(C)C)[C@@H](C)C(C)C)[C@@H](C)C(C)C)[C@@H](C)C(C)C [Peptoid 1-Nsdpall, H-(NLys-Nsdp-Nsdp)4-NH2]
5. C[C@@H](c1ccccc1)N(CC(N)=O)C(=O)CN(C(=O)CN(CCCCN)C(=O)CN(C(=O)CN(C(=O)CN(CCCCN)C(=O)[C@@H]1CCCN1C(=O)CN(C(=O)CN(CCCCN)C(=O)CN(C(=O)CN(C(=O)CNCCCCN)[C@@H](C)c1ccccc1)[C@@H](C)c1ccccc1)[C@@H](C)c1ccccc1)[C@@H](C)c1ccccc1)[C@@H](C)c1ccccc1)[C@@H](C)c1ccccc1 [Peptoid 1-Pro6] (H-[Nlys][Nspe][Nspe][Nlys][Nspe]P[Nlys][Nspe][Nspe][Nlys][Nspe][Nspe]-NH2)
6. C[C@@H](c1ccccc1)N(CC(N)=O)C(=O)CN(C(=O)CN(CCCCN)C(=O)CN(Cc1ccccc1)C(=O)CN(Cc1ccccc1)C(=O)CN(CCCCN)C(=O)CN(C(=O)CN(C(=O)CN(CCCCN)C(=O)CN(Cc1ccccc1)C(=O)CN(Cc1ccccc1)C(=O)CNCCCCN)[C@@H](C)c1ccccc1)[C@@H](C)c1ccccc1)[C@@H](C)c1ccccc1 [1-Npm2,3,8,9, H-(NLys-Npm-Npm-NLys-Nspe-Nspe)2-NH2]

1: 16; 2: 4; 3: 16; 4: 64; 5: 16; 6: 4
